- target-or-system: T1, Human CD73 on cells (MDA-MB-231, Jurkat CD73 knock-in, NCI-H322) (human, UniProt P21589 27-549)
- T1 sequence: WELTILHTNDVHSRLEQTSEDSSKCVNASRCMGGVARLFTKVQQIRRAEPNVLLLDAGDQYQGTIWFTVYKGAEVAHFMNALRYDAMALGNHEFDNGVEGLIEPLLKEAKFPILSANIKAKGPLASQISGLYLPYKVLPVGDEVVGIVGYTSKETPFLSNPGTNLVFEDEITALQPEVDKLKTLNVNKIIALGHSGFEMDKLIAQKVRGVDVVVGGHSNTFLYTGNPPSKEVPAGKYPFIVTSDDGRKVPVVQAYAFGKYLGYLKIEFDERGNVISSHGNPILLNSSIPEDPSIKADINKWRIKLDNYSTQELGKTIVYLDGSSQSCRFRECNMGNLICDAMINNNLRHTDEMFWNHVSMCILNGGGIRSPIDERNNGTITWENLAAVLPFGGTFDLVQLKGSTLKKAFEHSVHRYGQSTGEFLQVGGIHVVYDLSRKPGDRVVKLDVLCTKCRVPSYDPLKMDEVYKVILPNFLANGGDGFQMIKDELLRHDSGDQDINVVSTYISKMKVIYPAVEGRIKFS
- measurement-description: cell-based or functional assay
Could you please report measured Internalization, MDA-MB-231, 1/EC50 (nM) for the items listed next?
All answers are understood in nM⁻¹, so give the number only.

[ask] Name the recorded Internalization, MDA-MB-231, 1/EC50 (nM) of the item CD730068 (antibody, V domains shown) VH: EVQLLESGGGLVQPGGSLRLSCAASGFTFSNYIMGWVRQAPGKGLEWVSSISSSGGATIYADSVKGRFTISRDNSKNTLYLQMNSLRAEDMAVYYCAKDHLGGHGMDVWGQGTTVTVSS VL: DIQMTQSPSSLSASVGDRVTITCRASQDISNYLAWFQQKPGKAPKSLIFAASSLESGVPSKFSGSGSGTDFTLTISSLQPEDSATYYCQQYNSYPLTFGGGTKVEIK in your answer.
[reply] 0

[ask] Name the recorded Internalization, MDA-MB-231, 1/EC50 (nM) of the item CD730047 (antibody, V domains shown, IgG1-TM format; also called CD730047 antibody) VH: EVQLVQSGGGVVQPGRSLRLSCAASGFTFSSYGMHWVRQAPGKGLEWVAVISYDGSIKYYADSVKGRFAISRDNAKNTLYLQMNSLRREDTAMYYCASGLTGVAGALGVWGRGTLVTVSS VL: QSVLTQPPSASGAPGQRVTISCSGSSSNIGSNTVNWYQRLPGAAPQLLIYNNDQRPSGIPDRFSGSKSGTSGSLVISGLQSEDEADYYCAAWDDSLSGNVFGTGTKVTVL in your answer.
[reply] 0.001

[ask] Name the recorded Internalization, MDA-MB-231, 1/EC50 (nM) of the item CD730069 (antibody, V domains shown) VH: EVQLLESGGGLVQPGGSLRLSCAASGFTFSEYQMGWVRQAPGKGLEWVSYIRSSGGQTIYADSVKGRFTISRDNSKNTLYLQMNSLRAEDTAVYYCARRTYSSGWHIDYWGQGTLVTVSS VL: DIQMTQSPDSLSASVGDRVTITCRASQSISRYLNWYQQKPGKAPKLLIYGASSLQSGVPSRFSGSGSGTDFSLTISSLQLEDFATYYCQQSYRTPLTFGGGTKVEIQ in your answer.
[reply] 0.038
